Numbers sourced from paper doi:10.1101/2022.07.22.501140.

Target: T1, DmBicc1 N-term (Drosophila melanogaster, UniProt Q24009 1-506)
T1 sequence: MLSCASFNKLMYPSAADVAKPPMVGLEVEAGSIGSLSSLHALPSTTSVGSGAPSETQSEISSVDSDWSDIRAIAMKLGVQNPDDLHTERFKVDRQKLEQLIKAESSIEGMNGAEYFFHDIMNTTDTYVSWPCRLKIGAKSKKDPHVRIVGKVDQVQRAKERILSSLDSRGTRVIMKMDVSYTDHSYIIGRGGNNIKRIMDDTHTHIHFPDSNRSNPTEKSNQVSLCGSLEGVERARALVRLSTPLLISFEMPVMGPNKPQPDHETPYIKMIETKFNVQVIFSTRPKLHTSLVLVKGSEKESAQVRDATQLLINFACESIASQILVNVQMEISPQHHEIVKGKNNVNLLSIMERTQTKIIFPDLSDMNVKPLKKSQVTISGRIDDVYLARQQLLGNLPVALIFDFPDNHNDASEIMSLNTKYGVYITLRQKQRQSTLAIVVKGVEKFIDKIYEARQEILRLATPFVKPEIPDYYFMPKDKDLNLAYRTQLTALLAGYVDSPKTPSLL
Experiment: fluorescence polarization
quantity-kind: Kd (nM)

binder	reported-result
CUUAUUAGACACGUUGUACAUUAACAGCUCC (structured_RNA) [XlCripto-1 wild-type RNA site]	93
